assayed-system: T1, recombinant human OX40/His fusion protein (Novoprotein, CB17) (human, UniProt P43489 29-216)
T1 construct: Bought protein
T1 sequence: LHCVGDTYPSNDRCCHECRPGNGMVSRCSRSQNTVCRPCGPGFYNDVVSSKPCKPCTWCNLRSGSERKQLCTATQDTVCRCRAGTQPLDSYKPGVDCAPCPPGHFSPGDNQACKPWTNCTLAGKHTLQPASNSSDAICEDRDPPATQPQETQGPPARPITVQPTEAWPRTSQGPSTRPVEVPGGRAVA
method-notes: BLI (Octet RED96), antibody on AHC sensor, OX40/His as analyte, test group 2
Kindly state Normalized Index (off-rate ratio to EM1007-mAb044c) for each of the entries shown.
Give bare numbers, in %.

binder	readout-units	value-measured
EM1007-mAb044c-11 (antibody, human IgG1, kappa, L234A L235A, V domains shown) VH: QVQLQQSGPELVKPGASVTISCKASGHAFSSSWMNWVKQRPGKGLEWIGRIYPGDEITNYNAKFKDKATLTADKSSSTAYMQLSSLTFEDSAVYFCARDLLMPYWGQGTLVTVSA VL: DIVMTQTAFSNPVTLGTSASISCRSSKSLLYSNAITYLYWYLQKPGQSPHLLIYQMSNLAPGVPDRFSSSGSGTDFTLRISRVEAEDVGIYYCAQNLELPFTFGSGTKLEIKR	%	100
HuEM1007-044-8 (antibody, human IgG1, kappa, L234A L235A, V domains shown, Humanized anti-OX40, human IgG1 LALA / kappa) VH: EVQLVQSGAEVKKPGSSVKVSCKASGHTFSSSWMNWVKQAPGKGLEWIGRIYPGDEITNYNGKFKDKVTLTADKSTSTAYMELSSLRSEDTAVYYCARDLLMPYWGQGTLVTVSS VL: DIVMTQTPLSLPVTPGEPASISCRSSKSLLYSNGITYLYWYLQKPGQSPQLLIYQMSNLAPGVPDRFSSSGSGTDFTLKISRVEAEDVGVYYCAQNLELPFTFGQGTKLEIKR	%	317
EM1007-mAb044c-12 (antibody, human IgG1, kappa, L234A L235A, V domains shown) VH: QVQLQQSGPELVKPGASVTISCKASGHAFSSSWMNWVKQRPGKGLEWIGRIYPGDEITNYNGKFKDKATLTADKSSSTAYMQLSSLTFEDSAVYFCARDLLMPYWGQGTLVTVSA VL: DIVMTQTPLSLPVTPGEPASISCRSSKSLLYSNGITYLYWYLQKPGQSPQLLIYQMSNLAPGVPDRFSGSGSGTDFTLKISRVEAEDVGVYYCAQNLELPFTFGQGTKLEIKR	%	255

// query Could you share which Normalized Index (off-rate ratio to EM1007-mAb044c) value was measured for EM1007-mAb044c-10 (antibody, human IgG1, kappa, L234A L235A, V domains shown) VH: QVQLQQSGPELVKPGASVTISCKASGHAFSSSWMNWVKQRPGKGLEWIGRIYPGDEITNYNGKFKDKATLTADKSSSTAYMQLSSLTFEDSAVYFCARDLLMPYWGQGTLVTVSA VL: DIVMTQTAFSNPVTLGTSASISCRSSKSLLYSNAITYLYWYLQKPGQSPHLLIYQMSNLAPGVPDRFSSSGSGTDFTLRISRVEAEDVGIYYCAQNLELPFTFGSGTKLEIKR ?
// result 94
